Target: Disintegrin and metalloproteinase domain-containing protein 17 (Sus scrofa, UniProt O77636)
Sequence (O77636 whole entry, the tested form may be a part): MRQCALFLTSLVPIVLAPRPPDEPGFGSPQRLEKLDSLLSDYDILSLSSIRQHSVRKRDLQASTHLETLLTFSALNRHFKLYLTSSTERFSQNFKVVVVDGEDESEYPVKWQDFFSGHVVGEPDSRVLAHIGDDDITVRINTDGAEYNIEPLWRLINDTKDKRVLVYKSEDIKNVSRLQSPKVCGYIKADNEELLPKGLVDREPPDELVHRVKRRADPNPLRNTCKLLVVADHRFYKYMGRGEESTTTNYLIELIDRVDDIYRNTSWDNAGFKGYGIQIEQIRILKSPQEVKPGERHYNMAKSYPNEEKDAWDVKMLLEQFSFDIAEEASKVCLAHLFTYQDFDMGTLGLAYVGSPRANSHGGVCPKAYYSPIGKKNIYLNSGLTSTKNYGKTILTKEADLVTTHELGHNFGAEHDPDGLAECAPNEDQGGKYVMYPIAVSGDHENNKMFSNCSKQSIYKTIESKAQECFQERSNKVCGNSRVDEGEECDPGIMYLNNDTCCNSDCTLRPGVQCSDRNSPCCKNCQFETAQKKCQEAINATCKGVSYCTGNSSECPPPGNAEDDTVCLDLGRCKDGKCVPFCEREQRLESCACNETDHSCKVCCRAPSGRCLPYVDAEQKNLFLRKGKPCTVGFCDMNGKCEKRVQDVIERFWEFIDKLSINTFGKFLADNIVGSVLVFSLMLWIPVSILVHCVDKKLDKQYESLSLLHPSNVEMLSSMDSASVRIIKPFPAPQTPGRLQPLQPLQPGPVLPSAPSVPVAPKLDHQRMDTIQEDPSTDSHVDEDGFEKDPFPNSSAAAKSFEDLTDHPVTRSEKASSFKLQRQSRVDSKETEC
parameter.measured: Ki (nM)

> print(dat)
                                   compound  result.number
1  Cc1cc(COc2ccc([C@]3(C)CCN([C@H](C)C(=O)NO)C3=O)cc2)c2ccccc2n1 (stereo in doubt)           0.56

----------
# IC50 values compiled below
Molecular target: Disintegrin and metalloproteinase domain-containing protein 17 (Homo sapiens, UniProt P78536)
Sequence (P78536 whole entry, the tested form may be a part): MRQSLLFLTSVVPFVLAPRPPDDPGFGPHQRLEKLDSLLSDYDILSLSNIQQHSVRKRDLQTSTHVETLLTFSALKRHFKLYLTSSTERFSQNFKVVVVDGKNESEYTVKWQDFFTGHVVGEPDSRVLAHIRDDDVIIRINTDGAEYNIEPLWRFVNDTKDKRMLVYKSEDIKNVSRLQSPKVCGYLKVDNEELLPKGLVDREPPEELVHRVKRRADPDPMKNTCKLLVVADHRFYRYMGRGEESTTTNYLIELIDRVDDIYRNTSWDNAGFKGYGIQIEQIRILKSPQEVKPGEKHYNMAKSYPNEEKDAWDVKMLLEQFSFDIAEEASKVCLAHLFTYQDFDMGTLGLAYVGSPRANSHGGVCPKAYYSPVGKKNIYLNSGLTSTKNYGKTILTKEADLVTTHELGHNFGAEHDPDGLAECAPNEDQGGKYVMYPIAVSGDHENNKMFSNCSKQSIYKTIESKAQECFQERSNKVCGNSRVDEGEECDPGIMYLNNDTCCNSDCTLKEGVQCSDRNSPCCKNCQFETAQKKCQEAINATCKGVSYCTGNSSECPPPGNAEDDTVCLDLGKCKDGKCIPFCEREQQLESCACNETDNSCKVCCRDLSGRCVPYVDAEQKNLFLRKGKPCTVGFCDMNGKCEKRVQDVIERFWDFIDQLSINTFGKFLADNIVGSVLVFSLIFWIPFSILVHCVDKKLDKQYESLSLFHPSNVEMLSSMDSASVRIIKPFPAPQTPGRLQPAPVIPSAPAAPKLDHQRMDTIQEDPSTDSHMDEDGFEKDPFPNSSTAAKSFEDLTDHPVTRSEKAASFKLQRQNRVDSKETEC
Test: Inhibition of Tumor necrosis factor alpha secretion in LPS-stimulated human whole blood assay
parameter.measured: IC50 (µM)

> print(dat)
                                   compound  parameter.measured  reading.unit  result.number
1  Cc1cncc(C)c1COc1ccc([C@]2(C)CCN([C@H](C)C(=O)NO)C2=O)cc1 (stereo in doubt; 5q)                IC50            µM            6.6
2  Cc1cncc(C)c1COc1ccc([C@]2(C)CCN([C@H](C)C(=O)NO)C2=O)cc1 (stereo in doubt; 5p)                IC50            µM            8.1
3  C[C@H](C(=O)NO)N1CC[C@@](C)(c2ccc(OCc3ccncc3)cc2)C1=O                IC50            µM            5.9
4  C[C@H](C(=O)NO)N1CC[C@@](C)(c2ccc(OCc3ccnc4ccccc34)cc2)C1=O                IC50            µM           2.25

----------
Assay: The compound was administered intravenously at a dose of 4 mg/Kg for determination of systemic clearance
Assay type: ADME, organism-based, Canis lupus familiaris
Details: dog, in vivo, iv
parameter.measured: clearance (mL/min/kg)

> print(dat)
                                   compound  reading.unit  result.number
1  Cc1cc(COc2ccc([C@]3(C)CCN([C@H](C)C(=O)NO)C3=O)cc2)c2ccccc2n1 (stereo in doubt)     mL/min/kg           15.7

----------
# Ki values compiled below
Sequence of the target: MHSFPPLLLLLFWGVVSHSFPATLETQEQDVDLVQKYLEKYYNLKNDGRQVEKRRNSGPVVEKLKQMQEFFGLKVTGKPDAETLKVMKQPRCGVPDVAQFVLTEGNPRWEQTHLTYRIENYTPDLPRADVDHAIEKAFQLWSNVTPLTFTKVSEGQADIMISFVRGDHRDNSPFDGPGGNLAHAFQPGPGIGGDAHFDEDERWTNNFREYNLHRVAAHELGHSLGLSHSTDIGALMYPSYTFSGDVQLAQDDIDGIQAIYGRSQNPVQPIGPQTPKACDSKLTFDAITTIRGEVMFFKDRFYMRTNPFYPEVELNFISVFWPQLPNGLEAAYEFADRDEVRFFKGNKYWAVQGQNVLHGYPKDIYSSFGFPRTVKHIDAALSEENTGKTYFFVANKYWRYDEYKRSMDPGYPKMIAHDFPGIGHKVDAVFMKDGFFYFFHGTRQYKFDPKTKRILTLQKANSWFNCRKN
parameter.measured: Ki (nM)

> print(dat)
                            molecule.smiles  parameter.measured  qualifier  result.number
1  C[C@H](C(=O)NO)N1CC[C@@](C)(c2ccc(OCc3cc(C(F)(F)F)cc(C(F)(F)F)c3)cc2)C1=O                  Ki          >           5000
2  C[C@H](C(=O)NO)N1CC[C@@](C)(c2ccc(Oc3ccccc3)cc2)C1=O                  Ki          =            143
3  C[C@H](C(=O)NO)N1CC[C@@](C)(c2ccc(OCc3ccccc3[N+](=O)[O-])cc2)C1=O                  Ki          >           5000
4  COc1cc(COc2ccc([C@]3(C)CCN([C@H](C)C(=O)NO)C3=O)cc2)cc(OC)c1                  Ki          >           5000
5  C[C@H](C(=O)NO)N1CC[C@@](C)(c2ccc(OCc3cccc([N+](=O)[O-])c3)cc2)C1=O                  Ki          >           5000
6  COc1ccc([C@]2(C)CCN([C@H](C)C(=O)NO)C2=O)cc1                  Ki          =             92
7  C=CCOc1ccc([C@]2(C)CCN([C@H](C)C(=O)NO)C2=O)cc1                  Ki          =            335
8  C[C@H](C(=O)NO)N1CC[C@@](C)(c2ccc(OCc3ccc([N+](=O)[O-])cc3)cc2)C1=O                  Ki          >           5000
9  C[C@H](C(=O)NO)N1CC[C@@](C)(c2ccc(-c3ccccc3)cc2)C1=O                  Ki          =           2290

Sourced from ChEMBL document CHEMBL1135609
